# study target: PI3K γ (p110γ) (Homo sapiens, UniProt P48736)
# Construct: purchased Upstate / Millipore Corporation
# Sequence (P48736 whole entry): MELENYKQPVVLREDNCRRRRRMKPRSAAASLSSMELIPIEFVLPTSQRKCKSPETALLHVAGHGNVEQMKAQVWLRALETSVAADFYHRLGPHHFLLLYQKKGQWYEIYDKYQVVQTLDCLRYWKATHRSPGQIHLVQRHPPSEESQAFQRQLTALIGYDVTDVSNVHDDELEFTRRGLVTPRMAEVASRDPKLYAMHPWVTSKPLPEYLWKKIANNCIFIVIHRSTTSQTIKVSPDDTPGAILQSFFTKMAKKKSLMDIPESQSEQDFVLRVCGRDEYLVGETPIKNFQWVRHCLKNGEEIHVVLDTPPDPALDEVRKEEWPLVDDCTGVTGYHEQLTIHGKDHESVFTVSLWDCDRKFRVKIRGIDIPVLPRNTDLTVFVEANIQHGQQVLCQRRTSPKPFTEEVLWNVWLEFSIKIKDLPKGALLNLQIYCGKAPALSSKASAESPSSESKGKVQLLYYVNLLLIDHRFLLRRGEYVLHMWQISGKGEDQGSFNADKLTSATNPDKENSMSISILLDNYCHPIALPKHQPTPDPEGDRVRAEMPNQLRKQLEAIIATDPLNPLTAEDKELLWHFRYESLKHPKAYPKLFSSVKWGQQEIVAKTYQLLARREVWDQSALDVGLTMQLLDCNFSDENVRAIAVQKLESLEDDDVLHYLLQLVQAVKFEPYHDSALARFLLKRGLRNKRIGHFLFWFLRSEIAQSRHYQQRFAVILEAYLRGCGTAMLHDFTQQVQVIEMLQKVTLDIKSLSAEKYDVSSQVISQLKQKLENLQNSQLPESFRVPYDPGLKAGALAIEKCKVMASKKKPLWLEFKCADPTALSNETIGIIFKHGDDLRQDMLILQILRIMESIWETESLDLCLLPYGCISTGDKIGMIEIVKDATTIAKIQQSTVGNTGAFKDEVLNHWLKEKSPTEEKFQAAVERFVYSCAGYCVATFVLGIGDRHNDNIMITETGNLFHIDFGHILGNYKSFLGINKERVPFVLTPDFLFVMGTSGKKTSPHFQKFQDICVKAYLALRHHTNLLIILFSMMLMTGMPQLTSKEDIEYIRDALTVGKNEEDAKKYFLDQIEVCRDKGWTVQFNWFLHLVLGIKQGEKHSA
# assay summary: PI 3-Kinase (human) HTRF assay, PI3K γ
# Format: biochemical
# experimental context: read-out: PI3K γ IC50
pIC50: −log10 of the molar value.
parameter: pIC50

Below, each entry is followed by its recorded pIC50 result.
{"sample smiles": "Cc1cc(-c2ccc3oc(N)nc3c2)cc2c(C(=O)N3CCCC3)cnn12", "pIC50": "> 6.00"}
{"sample smiles": "Nc1nc2cc(-c3ccc4ncc(N5CC(N6CCN(CCO)CC6)C5)nc4c3)ccc2o1", "pIC50": "> 5.00"}
{"sample smiles": "CC(C)(C#N)c1ccc(Nc2ncnc3ccc(-c4ccc5oc(N)nc5c4)cc23)cc1", "pIC50": "> 7.00"}
{"sample smiles": "Nc1ncc2cc(-c3ccc4nccc(-c5ccncc5)c4c3)ccc2n1", "pIC50": "> 6.00"}

We next turn to a different compound, shown below.
Query block: Look up pIC50 of `Cc1cc(-c2ccc3oc(N)nc3c2)cn2c(C(=O)N3CCOCC3)cnc12` and report it.
Result block: > 5.00
